System: MS2 coat protein
Assay: apparent KD of MS2 coat protein; designed switch direction (-1 OFF switch, 1 ON switch): -1; higher = weaker reporter binding
Details: Eterna round: R95; input ligand: FMN 200 uM
Recorded apparent KD of MS2 coat protein by entry
Numeric answer only, unit nM assumed.

Example entries begin here.
UCAUGUUUAGAGGAUAUGAUUACUCUAGAGUGAUCAGAAGGCUAGACAUGAGGAUCACCCAUGUCAUAACAUGA [Exclusion 6 - B - 16:a] (puzzle: Exclusion 6)	56.3
GGUCGGCGAGGAUAUACAUGAGGAUCACCCAUGUGAUAGAUUGCACGCGUACGUGUAUGUAGAAGGCGCUGACG [JL-ex3-3.30 salish99 mod] (puzzle: Exclusion 3)	811

# ---- query sequence ----
Kindly indicate its recorded apparent KD of MS2 coat protein. Item: GCCAGAGCAGGAUAUCUAAUAUCUCACAUGAGGAUCACCCAUGUCUAGCGAAAGCUAGAGGGAGAAGGGCUCUGGC [Mat - Exclusion 5 - Eli mod - D93] (puzzle: Exclusion 5)
28.1
